system-under-test: UniProt P10275
Sequence (P10275 whole entry): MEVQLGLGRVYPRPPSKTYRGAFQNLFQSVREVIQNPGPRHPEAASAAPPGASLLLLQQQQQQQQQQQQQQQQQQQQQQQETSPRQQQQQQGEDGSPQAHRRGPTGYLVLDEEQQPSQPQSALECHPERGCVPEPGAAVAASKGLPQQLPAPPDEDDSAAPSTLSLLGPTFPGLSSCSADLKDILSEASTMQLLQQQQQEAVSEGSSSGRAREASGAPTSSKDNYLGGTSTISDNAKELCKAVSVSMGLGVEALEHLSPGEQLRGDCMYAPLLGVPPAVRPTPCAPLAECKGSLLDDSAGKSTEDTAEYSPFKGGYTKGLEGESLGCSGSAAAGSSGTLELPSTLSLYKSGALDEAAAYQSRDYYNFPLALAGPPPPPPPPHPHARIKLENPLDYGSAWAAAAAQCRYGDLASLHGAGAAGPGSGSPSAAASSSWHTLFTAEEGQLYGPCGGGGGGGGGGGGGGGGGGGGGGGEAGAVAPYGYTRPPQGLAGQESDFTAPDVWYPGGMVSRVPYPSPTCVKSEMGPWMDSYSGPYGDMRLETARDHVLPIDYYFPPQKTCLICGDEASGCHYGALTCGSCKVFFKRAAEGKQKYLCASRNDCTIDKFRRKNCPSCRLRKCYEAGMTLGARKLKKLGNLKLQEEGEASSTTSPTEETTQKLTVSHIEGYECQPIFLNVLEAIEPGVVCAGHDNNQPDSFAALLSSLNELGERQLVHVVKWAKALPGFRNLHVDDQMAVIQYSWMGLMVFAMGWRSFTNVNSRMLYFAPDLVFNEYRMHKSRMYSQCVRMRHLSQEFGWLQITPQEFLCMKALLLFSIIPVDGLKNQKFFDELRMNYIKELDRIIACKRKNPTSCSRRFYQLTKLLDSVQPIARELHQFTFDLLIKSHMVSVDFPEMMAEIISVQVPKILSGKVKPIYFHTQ
protocol-text: CHO steroid receptor reporter assay, AR / MMTV-Luc
condition: read-out: IC50 (antagonist)
Text: For monitoring both human steroid receptor agonistic as well as antagonistic activity of compounds, Chinese hamster ovary (CHO) K1 cells stably co-transfected with the specific human steroid receptor and its respective reporter construct were used (as previously described). […]
pIC50: −log10 of the molar value.
measured-metric: pIC50

Consider Cc1nnsc1C(=O)N[C@H]1CCN2c3ccc(C#N)cc3[C@@H](C)c3ccccc3[C@@H]2C1 [Org 214007-0] . Its measured pIC50 is < 6.00

###

Measured IC50, listed per entry for reference.
Tested on: THP-1 cells
protocol-text: THP-1 repression of TNFα/IFNγ-induced MCP-1, IL-6, IL-8 release
Type: cell-based, human
condition: Homo sapiens; THP-1, TNFα (60 ng/ml)/IFNγ (40 ng/ml); read-out: IC50, MCP-1 release
Note: unit nM is implicit; provide only the numeric part.

Cc1nnsc1C(=O)N[C@H]1CCN2c3ccc(C#N)cc3[C@@H](C)c3ccccc3[C@@H]2C1	23.5

Now consider a different compound.
C[C@]12C=CC(=O)C=C1CC[C@@H]1[C@@H]2[C@@H](O)C[C@@]2(C)[C@H]1CC[C@]2(O)C(=O)CO [prednisolone, reference compound] yielded IC50 of 69.9

Source of measurements: paper PMC3495945
